molecular target: SAE1 (Homo sapiens (Human), UniProt Q9UBE0+Q9UBT2); assay: SAE High Throughput Biochemical Assay (HTRF), 15 min preincubation; details: read-out: 15 min preincubation HTRF IC50 (μM) Ave, SAE1 12.5 nM, ATP 100 μM
Sequence (Q9UBE0 whole entry): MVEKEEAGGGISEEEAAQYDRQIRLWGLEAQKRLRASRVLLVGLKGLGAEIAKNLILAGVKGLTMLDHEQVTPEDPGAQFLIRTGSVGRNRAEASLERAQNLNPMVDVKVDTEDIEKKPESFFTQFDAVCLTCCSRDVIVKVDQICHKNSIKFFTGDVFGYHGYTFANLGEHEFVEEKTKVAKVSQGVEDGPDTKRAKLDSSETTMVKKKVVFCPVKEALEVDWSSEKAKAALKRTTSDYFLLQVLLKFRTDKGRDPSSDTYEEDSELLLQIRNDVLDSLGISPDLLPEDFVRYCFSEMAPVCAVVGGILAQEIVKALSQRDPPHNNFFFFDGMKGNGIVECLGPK
Sequence (Q9UBT2 whole entry): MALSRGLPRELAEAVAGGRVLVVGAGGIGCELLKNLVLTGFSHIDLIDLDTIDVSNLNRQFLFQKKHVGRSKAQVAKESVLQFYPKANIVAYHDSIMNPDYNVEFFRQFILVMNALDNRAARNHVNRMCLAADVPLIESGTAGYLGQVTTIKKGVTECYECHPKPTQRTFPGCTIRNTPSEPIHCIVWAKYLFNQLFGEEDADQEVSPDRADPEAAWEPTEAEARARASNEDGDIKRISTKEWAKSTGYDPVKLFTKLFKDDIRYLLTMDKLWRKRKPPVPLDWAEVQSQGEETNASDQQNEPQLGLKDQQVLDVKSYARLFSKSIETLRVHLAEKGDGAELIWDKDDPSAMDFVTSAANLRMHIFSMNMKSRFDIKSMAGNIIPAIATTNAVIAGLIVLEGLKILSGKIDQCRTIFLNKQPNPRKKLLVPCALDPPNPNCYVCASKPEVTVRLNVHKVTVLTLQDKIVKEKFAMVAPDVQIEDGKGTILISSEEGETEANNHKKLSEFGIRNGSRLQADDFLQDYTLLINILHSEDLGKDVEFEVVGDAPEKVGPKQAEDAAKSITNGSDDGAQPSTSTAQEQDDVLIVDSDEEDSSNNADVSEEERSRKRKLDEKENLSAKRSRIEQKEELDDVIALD
Threshold 2 µM. IC50 below it: satisfied. IC50 at it or above: not satisfied.

Answered cases to consult:
- CN(C)C/C=C/C(=O)N1Cc2sc(C#N)cc2[C@H](c2ccccc2-c2cn(CC(F)(F)F)nc2C(F)(F)F)C1: not satisfied
- CN(C)C/C=C/C(=O)N1Cc2sc(C#N)cc2[C@H](c2cccc(F)c2-c2cn(C)nc2C(F)(F)F)C1: satisfied
- CNC(=O)C(C)n1cc(-c2ccccc2[C@@H]2CN(C(=O)/C=C/CN(C)C)Cc3sc(C#N)cc32)c(C(F)(F)F)n1 (some centres unmarked): not satisfied
- CCn1cc(-c2ccccc2[C@@H]2CN(C(=O)/C=C/C3COCCN3)Cc3sc(C#N)cc32)c(C(F)(F)F)n1 (some centres unmarked): not satisfied
- [2H]C(C)(C)NC/C=C/C(=O)N1Cc2sc(C#N)cc2[C@H](c2cccc(F)c2-c2cn(CC)nc2C(F)(F)F)C1: satisfied
- CCn1cc(-c2ccccc2[C@@H]2CN(C(=O)/C=C/CNCC(C)C)Cc3sc(C#N)cc32)c(C(F)(F)F)n1: not satisfied

Given CCn1cc(-c2ccccc2[C@@H]2CN(C(=O)C#CC3CCCNC3)Cc3sc(C#N)cc32)c(C(F)(F)F)n1 (some centres unmarked) , is recorded IC50 strictly lower than 2 µM?
not satisfied

Given `CCn1cc(-c2ccccc2[C@@H]2CN(C(=O)C#CCN)Cc3sc(C#N)cc32)c(C(F)(F)F)n1` , is recorded IC50 strictly lower than 2 µM?
satisfied

Given `CCNC/C=C/C(=O)N1Cc2sc(C#N)cc2[C@H](c2cccc(F)c2-c2cn(CC)nc2C(F)(F)F)C1` , is recorded IC50 strictly lower than 2 µM?
satisfied

Given CCn1cc(-c2ccccc2[C@@H]2CN(C(=O)/C=C/C3CCCN3)Cc3sc(C#N)cc32)c(C(F)(F)F)n1 (some centres unmarked) , is recorded IC50 strictly lower than 2 µM?
not satisfied

Given `CCn1cc(-c2c(F)cccc2[C@@H]2CN(C(=O)/C=C/CN(C)C)Cc3sc(C#N)c(C)c32)c(C(F)(F)F)n1` , is recorded IC50 strictly lower than 2 µM?
satisfied

Given CCn1cc(-c2ccccc2C2CN(C(=O)/C=C/CN(C)C)Cc3sc(C#N)c(F)c32)c(C(F)(F)F)n1 (centres unmarked) , is recorded IC50 strictly lower than 2 µM?
not satisfied

Given CCn1cc(-c2nc(N)ccc2C2CN(C(=O)/C=C/CN(C)C)Cc3sc(C#N)cc32)c(C(F)(F)F)n1 (centres unmarked) , is recorded IC50 strictly lower than 2 µM?
not satisfied

Given `CCn1cc(-c2c(F)cccc2[C@@H]2CN(C(=O)/C=C/[C@@H]3C[C@@H]4C[C@@H]4N3)Cc3sc(C#N)cc32)c(C(F)(F)F)n1` , is recorded IC50 strictly lower than 2 µM?
satisfied
